# Test system: MDA-MB-231
# Method summary: NCI tumour cell line growth inhibition, 48 h
Activity calls are given as the source filed them. Cut-off read from the data, not from the text of the source: active = GI50 up to about 1.1 µM and inactive = higher.
Experimental readout: GI50

Known GI50 results, listed for orientation:
{"Molecule": "CC(C)(C)c1ccc(OCCOc2ccc(C(C)(C)C)cc2NC=O)c(NC=O)c1", "Assay result": "11.4 µM (inactive)"}
{"Molecule": "COc1ccc2c(c1)[n+]([O-])c(/C(C)=N/NC(N)=S)c(C)[n+]2[O-]", "Assay result": "89.7 µM (inactive)"}
{"Molecule": "COc1ccc2c(c1)CCc1c-2n(CCN(C)C)c2ccc(OC)cc12", "Assay result": "11.2 µM (inactive)"}
{"Molecule": "COC(=O)CCC12CCC(O1)c1ccccc12 (stereo unspecified)", "Assay result": "> 100 µM (inactive)"}
{"Molecule": "CC(=O)Nc1c(C)cc2c(nc3n2CCC3OC(C)=O)c1[N+](=O)[O-] (stereo unspecified)", "Assay result": "> 100 µM (inactive)"}

Consider the record given below.
Recall the recorded GI50 for CCN1CCCCCCCCCC(=N/O)/C(=N\O)C1 with MDA-MB-231 and state it.
> 100 µM (inactive)

Source of measurements: ChEMBL document CHEMBL1201862
